# Assay Target: human Nav1.8 channels (Homo sapiens, UniProt Q9Y5Y9)
# Construct: expressed in transfected cells
# Sequence (Q9Y5Y9 whole entry): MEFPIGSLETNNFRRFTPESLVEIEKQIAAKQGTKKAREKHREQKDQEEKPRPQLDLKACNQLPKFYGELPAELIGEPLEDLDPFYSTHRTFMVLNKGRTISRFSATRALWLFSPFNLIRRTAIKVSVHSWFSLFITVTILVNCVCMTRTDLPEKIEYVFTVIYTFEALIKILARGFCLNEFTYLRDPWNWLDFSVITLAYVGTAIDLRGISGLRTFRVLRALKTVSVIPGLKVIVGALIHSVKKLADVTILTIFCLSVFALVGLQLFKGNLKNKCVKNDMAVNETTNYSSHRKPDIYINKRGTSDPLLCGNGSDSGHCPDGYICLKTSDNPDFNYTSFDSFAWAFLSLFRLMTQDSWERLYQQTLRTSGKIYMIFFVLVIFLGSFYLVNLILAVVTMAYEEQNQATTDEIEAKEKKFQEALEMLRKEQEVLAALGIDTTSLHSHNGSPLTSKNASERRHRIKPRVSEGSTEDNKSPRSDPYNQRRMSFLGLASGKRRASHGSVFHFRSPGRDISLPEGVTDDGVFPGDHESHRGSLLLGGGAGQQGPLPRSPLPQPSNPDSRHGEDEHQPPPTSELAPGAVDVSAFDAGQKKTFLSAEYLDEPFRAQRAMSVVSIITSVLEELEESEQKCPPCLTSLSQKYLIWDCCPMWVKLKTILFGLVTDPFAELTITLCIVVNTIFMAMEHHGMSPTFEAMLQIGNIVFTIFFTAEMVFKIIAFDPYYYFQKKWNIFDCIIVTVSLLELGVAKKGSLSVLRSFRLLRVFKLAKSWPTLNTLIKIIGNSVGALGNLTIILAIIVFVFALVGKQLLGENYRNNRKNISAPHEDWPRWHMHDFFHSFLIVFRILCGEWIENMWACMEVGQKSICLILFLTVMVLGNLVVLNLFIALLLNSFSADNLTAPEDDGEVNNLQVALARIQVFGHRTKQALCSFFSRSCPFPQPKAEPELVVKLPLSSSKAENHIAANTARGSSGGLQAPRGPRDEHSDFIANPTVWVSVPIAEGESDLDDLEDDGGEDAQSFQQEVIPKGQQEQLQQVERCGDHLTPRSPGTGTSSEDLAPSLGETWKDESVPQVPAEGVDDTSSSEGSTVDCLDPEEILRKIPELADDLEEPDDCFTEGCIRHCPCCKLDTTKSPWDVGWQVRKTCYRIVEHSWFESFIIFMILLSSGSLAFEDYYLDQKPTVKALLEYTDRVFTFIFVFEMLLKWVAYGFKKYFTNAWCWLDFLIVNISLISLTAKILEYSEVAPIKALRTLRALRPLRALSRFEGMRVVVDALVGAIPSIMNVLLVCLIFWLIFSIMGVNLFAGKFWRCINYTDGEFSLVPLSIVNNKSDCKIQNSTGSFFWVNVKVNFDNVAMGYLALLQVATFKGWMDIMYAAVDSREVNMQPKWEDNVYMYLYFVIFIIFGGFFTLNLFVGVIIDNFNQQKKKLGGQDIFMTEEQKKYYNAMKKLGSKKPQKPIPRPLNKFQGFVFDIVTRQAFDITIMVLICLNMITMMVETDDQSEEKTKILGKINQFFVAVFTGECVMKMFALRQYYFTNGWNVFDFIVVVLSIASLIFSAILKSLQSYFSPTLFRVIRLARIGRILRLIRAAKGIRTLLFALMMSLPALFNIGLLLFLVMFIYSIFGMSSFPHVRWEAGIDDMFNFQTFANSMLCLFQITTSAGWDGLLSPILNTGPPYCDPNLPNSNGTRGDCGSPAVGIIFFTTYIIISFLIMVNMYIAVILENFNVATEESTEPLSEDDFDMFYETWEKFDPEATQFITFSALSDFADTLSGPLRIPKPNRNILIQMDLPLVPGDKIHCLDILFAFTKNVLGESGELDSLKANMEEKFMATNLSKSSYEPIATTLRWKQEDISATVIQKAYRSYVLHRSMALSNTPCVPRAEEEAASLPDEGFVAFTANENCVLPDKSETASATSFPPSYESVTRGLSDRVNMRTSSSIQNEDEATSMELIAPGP
# Protocol Details: Nav1.8 Qube automated patch-clamp assay
# Type: cell-based
# Experimental Setup: human Nav1.8 stably expressed in HEK 293 cells; whole-cell voltage clamp, room temperature; resting or inactivated state not specified; read-out: IC50 values (nM) for Examples in the Nav1.8 Qube Assay
Measured Property: IC50 (nM)

// worked examples, IC50 included
Compound: NS(=O)(=O)c1cncc(NC(=O)c2cc(C(F)(F)F)cnc2N2CCC(F)(F)CC2)n1 [Example 1]
IC50, nM: 406

Compound: COc1cncc(NC(=O)c2cc(C(F)(F)F)cnc2N2CCCCCC2)c1 [Example 194]
IC50, nM: 1550

Compound: NS(=O)(=O)c1cc(NC(=O)c2cc(C(F)(F)F)cnc2N2CC(C(F)(F)F)C2)ccn1 [Example 93]
IC50, nM: 707

I: Cc1nc(N2CCC(F)(F)CC2)c(C(=O)Nc2ccnc(S(N)(=O)=O)c2)cc1OCC(F)(F)F [Example 183]
II: NS(=O)(=O)c1cc(NC(=O)c2cc(C(F)(F)F)cnc2N2CCc3sccc3C2)ccn1 [Example 79]
III: NS(=O)(=O)c1cncc(NC(=O)c2cc(C(F)(F)F)cnc2N2CCCC(F)(F)CC2)c1 [Example 144]
IV: NS(=O)(=O)c1cc(NC(=O)c2cc(C(F)(F)F)cnc2N2CCn3c(Cc4ccccc4)cnc3C2)ccn1 [Example 86]
V: Cc1nc(C2CCCCCC2)c(C(=O)Nc2ccnc(S(N)(=O)=O)c2)c(C)c1Cl [Example 217]
Exercise: Could you please order the items by IC50, going from the lowest number to the highest? Please write the labels in the order that was asked for.
Solution: V, II, III, I, IV

A: CC12CCN(c3ncc(C(F)(F)F)cc3C(=O)Nc3ccnc(S(N)(=O)=O)c3)CC1C2(F)F (single isomer, unassigned) [Example 62]
B: Cc1nc(N2CCC3(CC2)CC3)c(C(=O)Nc2ccnc(S(N)(=O)=O)c2)c(C)c1Cl [Example 202]
C: NS(=O)(=O)c1cc(NC(=O)c2cc(C(F)(F)F)cnc2N2CCC(n3cccn3)C2)ccn1 (stereo not drawn) [Example 94]
D: NS(=O)(=O)c1cc(NC(=O)c2cc(C(F)(F)F)cnc2N2CCN(CC(F)(F)F)CC2)ccn1 [Example 100]
E: Cc1ccc(C(=O)Nc2ccnc(S(N)(=O)=O)c2)c(N2CCCC(F)(F)C(F)C2)n1 (stereo not drawn) [Example 40]
Exercise: Could you please order the items by IC50, going from the lowest number to the highest? Please write the labels in the order that was asked for.
Solution: B, E, A, C, D
(B: 1.9 nM, E: 4.1 nM, A: 105 nM, C: 745 nM, D: 4630 nM)

a: NS(=O)(=O)c1cc(NC(=O)c2cc(OC(F)F)cnc2N2CCCC(F)(F)CC2)ccn1 [Example 171]
b: NC(=O)c1cc(NC(=O)c2cc(C(F)(F)F)cnc2N2CCCC(F)(F)CC2)ccn1 [Example 137]
c: C[C@@H]1CN(c2ncc(C(F)(F)F)cc2C(=O)Nc2ccnc(S(N)(=O)=O)c2)CCCO1 [Example 111]
Exercise: Rank order required: IC50, descending. Please write the labels in the order that was asked for.
Solution: c, b, a

P: CS(=O)(=O)n1ncc(NC(=O)c2cc(C(F)(F)F)cnc2N2CCCC(F)(F)CC2)c1C1CC1 [Example 37]
Q: NS(=O)(=O)c1cc(NC(=O)c2cc(C(F)(F)F)cnc2N2CCCO[C@H](C(F)(F)F)C2)ccn1 [Example 104]
R: Cc1nc(N2CCCC(F)(F)CC2)c(C(=O)Nc2ccnc(S(N)(=O)=O)c2)cc1C#N [Example 25]
S: CCS(=O)(=O)c1cc(NC(=O)c2cc(C(F)(F)F)cnc2N2CCCCCC2)ccn1 [Example 198]
Exercise: Could you please order the items by IC50, going from the lowest number to the highest? Please write the labels in the order that was asked for.
Solution: R, Q, S, P

A: NS(=O)(=O)c1cc(NC(=O)c2cc(C(F)(F)F)cnc2N2CCCCC2c2ccc(F)cc2)ccn1 (stereo not drawn) [Example 95]
B: CC1CN(c2ncc(C(F)(F)F)cc2C(=O)Nc2ccnc(C(N)=O)c2)CCC1(F)F (single isomer, unassigned) [Example 157]
Exercise: Of A and B , which carries the smaller reported IC50 figure? Please indicate the selected item by its label.
Solution: B

A: NS(=O)(=O)c1cc(NC(=O)c2cc(C(F)(F)F)cnc2N2CCC(c3ccc(C(F)(F)F)cc3)C2)ccn1 (stereo not drawn) [Example 85]
B: NS(=O)(=O)c1cc(NC(=O)c2cc(C(F)(F)F)cnc2N2CCN(CC3CC3)C(=O)C2)ccn1 [Example 99]
Exercise: Of A and B , which carries the smaller reported IC50 figure? Please indicate the selected item by its label.
Solution: A

I: NS(=O)(=O)c1cc(NC(=O)c2cc(C(F)(F)F)cnc2N2CC3CCC3(C(F)(F)F)C2)ccn1 (single isomer, unassigned) [Example 59]
II: NS(=O)(=O)c1cccc(NC(=O)c2cc(C(F)(F)F)cnc2N2CCCCCC2)n1 [Example 141]
Exercise: # argmax over IC50 for candidates I and II Please indicate the selected item by its label.
Solution: II
(II: 245 nM, I: 116 nM)

P: NS(=O)(=O)c1cc(NC(=O)c2cc(C(F)(F)F)cnc2N2CCC(C(F)(F)F)C2)ccn1 (stereo not drawn) [Example 128]
Q: Cc1nc(N2CCC(F)(F)CC2)c(C(=O)Nc2ccnc(S(N)(=O)=O)c2)cc1F [Example 178]
R: Cc1nc(C2CCC(F)(F)CC2)c(C(=O)Nc2ccnc(S(N)(=O)=O)c2)c(C)c1Cl [Example 218]
Exercise: Could you please order the items by IC50, going from the lowest number to the highest? Please write the labels in the order that was asked for.
Solution: R, Q, P

====

# Assay Target: human Nav1.8 channels (Homo sapiens, UniProt Q9Y5Y9)
# Construct: expressed in transfected cells
# Protocol Details: Nav1.8 Qube automated patch-clamp assay
# Format: cell-based
# Experimental Setup: human Nav1.8 stably expressed in HEK 293 cells; whole-cell voltage clamp, room temperature; resting or inactivated state not specified; read-out: IC50 values (nM) for Examples in the Nav1.8 Qube Assay
Measured Property: IC50 (nM)

// worked examples, IC50 included
Compound: NS(=O)(=O)c1cc(NC(=O)c2cc(C(F)(F)F)cnc2N2C[C@H]3CC[C@H]3C2)ccn1 [Example 68]
Assay Target: human Nav1.8 channels (Homo sapiens, UniProt Q9Y5Y9)
Value: 29
--
Compound: CC1CN(c2nc(C(F)(F)F)ccc2C(=O)Nc2ccnc(S(N)(=O)=O)c2)CCC1(F)F (single isomer, unassigned) [Example 163]
Assay Target: human Nav1.8 channels (Homo sapiens, UniProt Q9Y5Y9)
Value: 10
--
Compound: CC1CN(c2ncc(C(F)(F)F)cc2C(=O)Nc2ccnc(C#N)c2)CCC1(F)F (single isomer, unassigned) [Example 154]
Assay Target: human Nav1.8 channels (Homo sapiens, UniProt Q9Y5Y9)
Value: 84

A: NS(=O)(=O)c1cc(NC(=O)c2cc(C(F)(F)F)cnc2N2CC3CC(F)(F)C3C2)ccn1 (single isomer, unassigned) [Example 65]
B: NS(=O)(=O)c1cc(NC(=O)c2cc(C(F)(F)F)cnc2N2CCC(Cl)(Cl)CC2)ccn1 [Example 29]
Exercise: # argmax over IC50 for candidates A and B Please indicate the selected item by its label.
Solution: A

A: CC1(C)CO[C@@H](C(F)(F)F)CN(c2ncc(C(F)(F)F)cc2C(=O)Nc2ccnc(S(N)(=O)=O)c2)C1 [Example 106]
B: N#CC1CCN(c2ncc(C(F)(F)F)cc2C(=O)Nc2ccnc(S(N)(=O)=O)c2)C1 (single isomer, unassigned) [Example 129]
Exercise: # argmax over IC50 for candidates A and B Please indicate the selected item by its label.
Solution: B

====

# Assay Target: human Nav1.8 channels (Homo sapiens, UniProt Q9Y5Y9)
# Construct: expressed in transfected cells
# Protocol Details: Nav1.8 Qube automated patch-clamp assay
# Format: cell-based
# Experimental Setup: human Nav1.8 stably expressed in HEK 293 cells; whole-cell voltage clamp, room temperature; resting or inactivated state not specified; read-out: IC50 values (nM) for Examples in the Nav1.8 Qube Assay
Measured Property: IC50 (nM)

Compound: O=C(Nc1cncc(CO)c1)c1cc(C(F)(F)F)cnc1N1CCCCCC1
Unit Info: nM
Value: 5190

1: Cc1nc(N2CCCCCC2)c(C(=O)Nc2cncc(S(N)(=O)=O)c2)c(C)c1Cl
2: Cc1nc(N2CCOC(C(F)F)C2)c(C(=O)Nc2ccnc(S(N)(=O)=O)c2)cc1Cl (single isomer, unassigned) [Example 125]
3: NS(=O)(=O)c1cc(NC(=O)c2cc(C(F)(F)F)cnc2N2C[C@H]3CC[C@@H](C2)C3(F)F)ccn1
4: NS(=O)(=O)c1cc(NC(=O)c2cc(C(F)(F)F)cnc2N2CCC(F)(F)CCC2=O)ccn1
5: NS(=O)(=O)c1cc(NC(=O)c2cc(C(F)(F)F)cnc2N2CC3CC2CC3(F)F)ccn1 (single isomer, unassigned) [Example 72]
Exercise: Could you please order the items by IC50, going from the lowest number to the highest? Please write the labels in the order that was asked for.
Solution: 1, 3, 2, 5, 4
(1: 5.9 nM, 3: 20 nM, 2: 144 nM, 5: 714 nM, 4: 1300 nM)
